- Study System: human recombinant AT1 receptor (Homo sapiens)
- Construct: Eurofins protocol ITEM24
- Sequence (P30556 whole entry): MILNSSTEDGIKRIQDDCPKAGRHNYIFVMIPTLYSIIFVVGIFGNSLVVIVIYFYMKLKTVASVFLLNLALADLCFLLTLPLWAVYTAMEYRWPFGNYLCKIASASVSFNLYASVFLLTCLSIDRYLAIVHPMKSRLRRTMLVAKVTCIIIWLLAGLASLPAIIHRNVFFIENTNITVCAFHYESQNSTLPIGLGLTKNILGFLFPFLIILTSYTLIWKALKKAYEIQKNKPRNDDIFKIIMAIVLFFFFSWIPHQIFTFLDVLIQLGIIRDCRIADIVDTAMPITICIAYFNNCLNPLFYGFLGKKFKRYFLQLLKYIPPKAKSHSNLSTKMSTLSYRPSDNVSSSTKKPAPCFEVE
- Assay Details: Binding to AT1 receptor, radiometric scintillation assay (Eurofins ITEM24)
Measurement Type: pIC50
Would you please state pIC50, meaning minus log10 of the concentration in mol/L, as a bare number?

Entry `CC(C)Cc1cc(-c2ccc(Cn3ccnc3C(C)C)c(F)c2)c(S(=O)(=O)NC(=O)NCCO)s1` , pIC50 reported as 5.08

Entry `Cc1nccn1Cc1ccc(-c2cc(CC(C)C)sc2S(=O)(=O)NC(=O)NCCCO)cc1F` , pIC50 reported as 4.68

Entry `Cc1nccn1Cc1ccc(-c2cc(CC(C)C)sc2S(=O)(=O)NC(=O)NCCO)c(F)c1` , pIC50 reported as 4.47

Entry `Cc1nccn1Cc1ccc(-c2cc(CC(C)C)sc2S(=O)(=O)NC(=O)NCCO)cc1F` , pIC50 reported as 4.62

Entry `CCc1nccn1Cc1ccc(-c2cc(CC(C)C)sc2S(=O)(=O)NC(=O)NCCO)cc1F` , pIC50 reported as 5.02
